Tested on: kiichigo
Experiment: Experiment 3 foliar application to naturally growing shrubs; note: key: -: no reproduction, namely complete suppression of reproduction; ±: remarkable suppression of reproduction; +: considerable suppression of reproduction; ++: medium supprestion of reproduction; +++: no suppression of reproduction
Format: in vivo, Rubus palmatsu Thunb. forma coptophyllus Makino
Details: 0.2%; after 3 months
Counter-ions that a name gives are not always drawn.
metric_name: Reproduction-inhibiting

Reference set (4 entries):
O=C([O-])C(F)(F)C(F)F.[Na+] [sodium 2,2,3,3-tetrafluoropropionate]: +++
CP(=O)(O)CCC(N)C(=O)O (racemic) [DL-AMPB choline]: -
CP(=O)(O)CC[C@H](N)C(=O)O [L-AMPB choline]: -
O=C(O)CNCP(=O)(O)O [Glyphosate, N-phosphonomethylglycine]: ++

Look up and state reported Reproduction-inhibiting for CP(=O)(O)CCC(N)C(=O)O (racemic) [monosodium salt]
-

* * *

Tested on: manna grass
Assay: Experiment 1 foliar application to naturally growing weeds; note: key: -: no reproduction, namely complete suppression of reproduction; ±: remarkable suppression of reproduction; +: considerable suppression of reproduction; ++: medium supprestion of reproduction; +++: no suppression of reproduction
Assay type: in vivo, Digitaria adsceudes Henr.
Conditions: 0.1%; 2 months
metric_name: Reproduction-inhibiting effect

O=C(O)CNCP(=O)(O)O [Glyphosate, N-phosphonomethylglycine]: ++
C[C@H](NC(=O)[C@H](C)NC(=O)[C@@H](N)CCP(C)(=O)O)C(=O)O [SF-1293 choline]: ±
CP(=O)(O)CCC(N)C(=O)O (racemic) [DL-AMPB choline]: ±
CP(=O)(O)CCC(N)C(=O)O (racemic) [DL-2-Amino-4-methylphosphinobutanoic acid monodiethanolammon]: ++

* * *

Tested on: water hyacinth
Assay: Experiment 5 foliar application to water hyacinths; note: key: -: no reproduction, namely complete suppression of reproduction; ±: remarkable suppression of reproduction; +: considerable suppression of reproduction; ++: medium supprestion of reproduction; +++: no suppression of reproduction
Type: in vivo, Eichhornia crassipes Solms
Conditions: 0.2%; 3 months
Counter-ions that a name gives are not always drawn.
metric_name: Reproduction-inhibiting effect

Illustrative cases are given below, each with its answer.
CP(=O)(O)CCC(N)C(=O)O (racemic) [DL-AMPB monodiethylammonium salt]: ±
CP(=O)(O)CC[C@H](N)C(=O)O [monosodium salt]: -
CP(=O)(O)CCC(N)C(=O)O (racemic) [DL-AMPB dipotassium salt]: ±
CP(=O)(O)CC[C@H](N)C(=O)O [L-AMPB monoisopropylammonium salt]: -
CP(=O)(O)CC[C@H](N)C(=O)O [L-AMPB choline]: -
C[C@H](NC(=O)[C@H](C)NC(=O)[C@@H](N)CCP(C)(=O)O)C(=O)O [SF-1293 monodiethylammonium salt]: -

Read the entry C[C@H](NC(=O)[C@H](C)NC(=O)[C@@H](N)CCP(C)(=O)O)C(=O)O [SF-1293 mono-n-butylammonium salt] and write its reported Reproduction-inhibiting effect.
-

Given the compound CP(=O)(O)CC[C@H](N)C(=O)O [L-AMPB diammonium salt] , write its reported Reproduction-inhibiting effect.
-

Input CP(=O)(O)CC[C@H](N)C(=O)O [L-AMPB monodiethylammonium salt] , output reported Reproduction-inhibiting effect.
-

* * *

System: white clover
Test: Experiment 1 foliar application to naturally growing weeds
Assay type: in vivo, Trifolium repens L.
Details: 0.2%; 4 months
metric_name: Reproduction-inhibiting effect

CP(=O)(O)CCC(N)C(=O)O (racemic) [DL-2-Amino-4-methylphosphinobutanoic acid monodiethanolammon]: -
O=C(O)CNCP(=O)(O)O [Glyphosate, N-phosphonomethylglycine]: +
C[C@H](NC(=O)[C@H](C)NC(=O)[C@@H](N)CCP(C)(=O)O)C(=O)O [(L-2-Amino-4-methylphosphinobutyryl)-L-alanyl-L-alanine mono]: -
CP(=O)(O)CC[C@H](N)C(=O)O [L-2-Amino-4-methylphosphinobutanoic acid monodiethanolammoni]: -

* * *

Tested on: water hyacinth
Assay: Experiment 5 foliar application to water hyacinths; note: key: -: no reproduction, namely complete suppression of reproduction; ±: remarkable suppression of reproduction; +: considerable suppression of reproduction; ++: medium supprestion of reproduction; +++: no suppression of reproduction
Type: in vivo, Eichhornia crassipes Solms
Details: 0.2%; 3 months
Where a name gives a salt, the structure may show the parent alone.
metric_name: Reproduction-inhibiting effect

CP(=O)(O)CCC(N)C(=O)O (racemic) [DL-AMPB diammonium salt]: ±
CP(=O)(O)CCC(N)C(=O)O (racemic) [DL-AMPB monoisopropylammonium salt]: ±
CP(=O)(O)CCC(N)C(=O)O (racemic) [DL-AMPB choline]: -
CP(=O)(O)CCC(N)C(=O)O (racemic) [DL-AMPB monopotassium salt]: ±
CP(=O)(O)CCC(N)C(=O)O (racemic) [DL-AMPB]: ±
C[C@H](NC(=O)[C@H](C)NC(=O)[C@@H](N)CCP(C)(=O)O)C(=O)O [SF-1293 choline]: -
CP(=O)(O)CC[C@H](N)C(=O)O [L-AMPB mono-n-butylammonium salt]: -
CP(=O)(O)CC[C@H](N)C(=O)O [L-AMPB, L-2-amino-4-methylphosphinobutanoic acid]: -

Now turn to the next compound.
Note down Reproduction-inhibiting effect recorded for CP(=O)(O)CCC(N)C(=O)O (racemic) [DL-AMPB disodium salt]
±
